These entries and their values trace back to the supplement of paper PMC11502859.

Tested on: HEK293T;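 note: lentiviral eGFP-IRES-mCherry reporter pool sorted by FACS 96 h post-transduction, gated on mCherry-high cells, Illumina read counts normalized per million, median across four biological replicates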
Assay: median enrichment of reporter reads in eGFP-reduced (low/intermediate) vs eGFP-high sorted cells (eGFP-extension fusion abundance) (ratio); higher = stronger loss of eGFP-fusion protein abundance (more destabilising extension)
parameterMeasured: median enrichment
Output spec: single numeric token, no unit.

Prompt: For the record CGGLVSELGLCRESLFCVSHPLPDPSLCLYSLNSVEFN [MCM3] , what value of median enrichment is listed for HEK293T?
Response: 13.4

Prompt: Next: CARAALEAPARGICPYPSWKDSWMW [HCRTR1]
Response: 10.8

Prompt: Let us now turn to YLDQSKCGLNLLVDQC [SLC25A3]
Response: 13.3

Prompt: Now give it for LHVKTFILVSTVFQ [SCGB1D2] too.
Response: 6.88

Prompt: What about this sequence? LNKLKMDLFFFNGNRTLCQITSYRNNSLFLTNLVLPYTSTGF [PTEN]
Response: 9.05

Prompt: How about this sequence: RGCAPAGSSKDRPARSPSNPTFFWKGGVLQGQAGASSRLLGANPSMYIAFLSCLRAADSQRCARGERCAVGSRA [TNFRSF1A]
Response: 10.5

Prompt: // query: LCFAEIFCSLRISETYL [SIM1]
Response: 7.43

Prompt: What do you get for LGALPGTGSLTSQD [KIF19] ?
Response: 0.309

Prompt: Same thing, different sequence: KRTQPPSAQREATSQPRGGRIRKQSHS [CCK]
Response: 0

Prompt: // repeat for SRGSHAPPPPCHSLGPHLPLP [SDC1] and report
Response: 0.282

Prompt: Now consider KKSSINVLSIGKYT [GRIN2A] .
Response: 1.77
